// provenance: ChEMBL document CHEMBL3232963

# Assayed System: Neuronal acetylcholine receptor subunit alpha-7 (Homo sapiens)
# Assay Method Text: Inhibition of alpha7 nAChR (unknown origin) expressed in Xenopus laevis oocytes assessed as inhibition of acetylcholine-evoked current at 10 uM by voltage clamp technique
# Assay type: cell-based
Activity calls are given as the source filed them. No cut-off for these calls is given here. Bridge positions count the residues as written; N and C are the ends. Square brackets hold non-standard residues; d marks the D form. Peptide text beside a SMILES is read from it. Nle = CCCC[C@H](N)C(=O)O; Nva = CCC[C@H](N)C(=O)O; Abu = CC[C@H](N)C(=O)O
Experimental Readout: inhibition

CCCC[C@@H]1NC(=O)[C@H](CO)NC(=O)[C@@H]2CSSC[C@@H](C(=O)O)NC(=O)[C@H](Cc3ccc(O)cc3)NC(=O)[C@H](CCC)NC(=O)[C@H](CC)NC(=O)[C@H](Cc3ccccc3)NC(=O)[C@H](CSSC[C@H](NC(=O)CN)C(=O)N2)NC(=O)[C@@H]2CCCN2C(=O)[C@@H]2CCCN2C1=O (H-GCCS[Nle]PPCF[Abu][Nva]YC-OH; disulfide 2-8, 3-13) :: inactive
CCC[C@@H]1NC(=O)[C@H](CC)NC(=O)[C@H](Cc2ccccc2)NC(=O)[C@@H]2CSSC[C@H](NC(=O)CN)C(=O)N[C@@H](CSSC[C@@H](C(=O)O)NC(=O)[C@H](Cc3ccc(O)cc3)NC1=O)C(=O)N[C@@H](CO)C(=O)N[C@@H](Cc1cnc[nH]1)C(=O)N1CCC[C@H]1C(=O)N1CCC[C@H]1C(=O)N2 (H-GCCSHPPCF[Abu][Nva]YC-OH; disulfide 2-8, 3-13) :: 49.8%
CCCC[C@@H]1NC(=O)[C@H](CO)NC(=O)[C@@H]2CSSC[C@@H](C(=O)O)NC(=O)[C@H](Cc3ccc(O)cc3)NC(=O)[C@H](CCC)NC(=O)[C@H](CC)NC(=O)[C@H](Cc3ccccc3)NC(=O)[C@H](CSSC[C@H](NC(=O)CN)C(=O)N2)NC(=O)[C@H](CC)NC(=O)[C@@H]2CCCN2C1=O (H-GCCS[Nle]P[Abu]CF[Abu][Nva]YC-OH; disulfide 2-8, 3-13) :: inactive
CCC[C@@H]1NC(=O)[C@H](CC)NC(=O)[C@H](Cc2ccccc2)NC(=O)[C@@H]2CSSC[C@H](NC(=O)CN)C(=O)N[C@@H](CSSC[C@@H](C(=O)O)NC(=O)[C@H](Cc3ccc(O)cc3)NC1=O)C(=O)N[C@@H](CO)C(=O)N[C@@H](Cc1cnc[nH]1)C(=O)N1CCC[C@H]1C(=O)N[C@@H](CC)C(=O)N2 (H-GCCSHP[Abu]CF[Abu][Nva]YC-OH; disulfide 2-8, 3-13) :: inactive

###

# Assayed System: Neuronal acetylcholine receptor; alpha3/beta4 (Rattus norvegicus) (UniProt P04757+P12392)
# Assay Method Text: Antagonist activity at rat alpha3beta4 nAChR expressed in HEK293 cells assessed as inhibition of epibatadine-induced effect at 10 uM after 30 mins by fluorescent membrane potential assay relative to mecamylamine
# Type: cell-based
Numbered stars: 1 amine (or outer) side, 2 acyl side, 3 side chain; on linkers, the order of the positions; unused ones are H or OH. Bridge positions count the residues as written; N and C are the ends. Square brackets hold non-standard residues; d marks the D form. Peptide text beside a SMILES is read from it. X1 = O=C([C@H](CC1C=Nc2ccccc21)N[*:1])[*:2]; Nle = CCCC[C@H](N)C(=O)O; Nva = CCC[C@H](N)C(=O)O; Abu = CC[C@H](N)C(=O)O
The following compounds are shown together with reported inhibition values.
Lab note: write values as number then unit, every time.

Some solved cases for reference:
CCC[C@@H]1NC(=O)[C@H](Cc2c[nH]c3ccccc23)NC(=O)[C@H](Cc2ccccc2)NC(=O)[C@@H]2CSSC[C@H](NC(=O)CN)C(=O)N[C@@H](CSSC[C@@H](C(=O)O)NC(=O)[C@@H]3CCCN3C1=O)C(=O)N[C@@H](CO)C(=O)N[C@@H](Cc1cnc[nH]1)C(=O)N1CCC[C@H]1C(=O)N1CCC[C@H]1C(=O)N2 (H-GCCSHPPCFW[Nva]PC-OH; disulfide 2-8, 3-13) :: 49%
CCCC[C@@H]1NC(=O)[C@H](CC2C=Nc3ccccc32)NC(=O)[C@H](Cc2ccccc2)NC(=O)[C@@H]2CSSC[C@H](NC(=O)CN)C(=O)N[C@@H](CSSC[C@@H](C(=O)O)NC(=O)[C@@H]3CCCN3C1=O)C(=O)N[C@@H](CO)C(=O)N[C@@H](Cc1cnc[nH]1)C(=O)N1CCC[C@H]1C(=O)N[C@@H](CC)C(=O)N2 (stereo partly drawn) (H-GCCSHP[Abu]CF[X1][Nle]PC-OH; disulfide 2-8, 3-13) :: 22.3%

Proceed to the following item.
Req: Requested field: inhibition. Item: CCCC[C@@H]1NC(=O)[C@H](CO)NC(=O)[C@@H]2CSSC[C@@H](C(=O)O)NC(=O)[C@@H]3CCCN3C(=O)[C@H](CCC)NC(=O)[C@H](CC)NC(=O)[C@H]([C@H](C)CC)NC(=O)[C@H](CSSC[C@H](NC(=O)CN)C(=O)N2)NC(=O)[C@H](CC)NC(=O)[C@@H]2CCCN2C1=O
Resp: 19.2%

###

# Assayed System: Neuronal acetylcholine receptor; alpha3/beta4 (Rattus norvegicus) (UniProt P04757+P12392)
# Assay Method Text: Antagonist activity at rat alpha3beta4 nAChR expressed in HEK293 cells assessed as inhibition of epibatadine-induced effect at 10 uM after 30 mins by fluorescent membrane potential assay relative to mecamylamine
# Assay type: cell-based
Numbered stars: 1 amine (or outer) side, 2 acyl side, 3 side chain; on linkers, the order of the positions; unused ones are H or OH. Bridge positions count the residues as written; N and C are the ends. Square brackets hold non-standard residues; d marks the D form. Peptide text beside a SMILES is read from it. X1 = O=C([C@H](CC1C=Nc2ccccc21)N[*:1])[*:2]; Nle = CCCC[C@H](N)C(=O)O; Nva = CCC[C@H](N)C(=O)O; Abu = CC[C@H](N)C(=O)O
inhibition of 90% or higher: true (1). Under 90%: false (0).

A selection of reference data follows.
CCCC[C@@H]1NC(=O)[C@H](CC)NC(=O)[C@H]([C@H](C)CC)NC(=O)[C@@H]2CSSC[C@H](NC(=O)CN)C(=O)N[C@@H](CSSC[C@@H](C(=O)O)NC(=O)[C@H](Cc3ccc(O)cc3)NC1=O)C(=O)N[C@@H](CO)C(=O)N[C@@H](Cc1cnc[nH]1)C(=O)N1CCC[C@H]1C(=O)N[C@@H](CC)C(=O)N2 :: true (1)
CCCC[C@@H]1NC(=O)[C@H](CC2C=Nc3ccccc32)NC(=O)[C@H](Cc2ccccc2)NC(=O)[C@@H]2CSSC[C@H](NC(=O)CN)C(=O)N[C@@H](CSSC[C@@H](C(=O)O)NC(=O)[C@@H]3CCCN3C1=O)C(=O)N[C@@H](CO)C(=O)N[C@@H](CCCC)C(=O)N1CCC[C@H]1C(=O)N[C@@H](CC)C(=O)N2 (stereo partly specified) (H-GCCS[Nle]P[Abu]CF[X1][Nle]PC-OH; disulfide 2-8, 3-13) :: false (0)
CCCC[C@@H]1NC(=O)[C@H](CC)NC(=O)[C@H]([C@H](C)CC)NC(=O)[C@@H]2CSSC[C@H](NC(=O)CN)C(=O)N[C@@H](CSSC[C@@H](C(=O)O)NC(=O)[C@@H]3CCCN3C1=O)C(=O)N[C@@H](CO)C(=O)N[C@@H](CCCC)C(=O)N1CCC[C@H]1C(=O)N[C@@H](CC)C(=O)N2 :: false (0)

Req: Would you say CCCC[C@@H]1NC(=O)[C@H](CO)NC(=O)[C@@H]2CSSC[C@@H](C(=O)O)NC(=O)[C@H](Cc3ccc(O)cc3)NC(=O)[C@H](CCC)NC(=O)[C@H](CC)NC(=O)[C@H](Cc3ccccc3)NC(=O)[C@H](CSSC[C@H](NC(=O)CN)C(=O)N2)NC(=O)[C@@H]2CCCN2C(=O)[C@@H]2CCCN2C1=O (H-GCCS[Nle]PPCF[Abu][Nva]YC-OH; disulfide 2-8, 3-13) shows inhibition at minimum 90%?
Resp: true (1)

Req: Evaluate CCC[C@@H]1NC(=O)[C@H](Cc2c[nH]c3ccccc23)NC(=O)[C@H]([C@H](C)CC)NC(=O)[C@@H]2CSSC[C@H](NC(=O)CN)C(=O)N[C@@H](CSSC[C@@H](C(=O)O)NC(=O)[C@@H]3CCCN3C1=O)C(=O)N[C@@H](CO)C(=O)N[C@@H](Cc1cnc[nH]1)C(=O)N1CCC[C@H]1C(=O)N[C@@H](CC)C(=O)N2 : inhibition at minimum 90%?
Resp: false (0)

###

Entries and their measured inhibition follow.
# Assayed System: Neuronal acetylcholine receptor; alpha3/beta4 (Rattus norvegicus) (UniProt P04757+P12392)
# Assay Method Text: Antagonist activity at rat alpha3beta4 nAChR expressed in HEK293 cells assessed as inhibition of epibatadine-induced effect at 10 uM after 30 mins by fluorescent membrane potential assay relative to mecamylamine
# Type: cell-based
Bridge positions count the residues as written; N and C are the ends. Square brackets hold non-standard residues; d marks the D form. Peptide text beside a SMILES is read from it. Nle = CCCC[C@H](N)C(=O)O; Abu = CC[C@H](N)C(=O)O
Record the value in %, omitting the unit from your answer.

Example results:
CCCC[C@@H]1NC(=O)[C@H](Cc2c[nH]c3ccccc23)NC(=O)[C@H](Cc2ccccc2)NC(=O)[C@@H]2CSSC[C@H](NC(=O)CN)C(=O)N[C@@H](CSSC[C@@H](C(=O)O)NC(=O)[C@H](Cc3ccc(O)cc3)NC1=O)C(=O)N[C@@H](CO)C(=O)N[C@@H](Cc1cnc[nH]1)C(=O)N1CCC[C@H]1C(=O)N1CCC[C@H]1C(=O)N2 (H-GCCSHPPCFW[Nle]YC-OH; disulfide 2-8, 3-13) :: 44
CCC[C@@H]1NC(=O)[C@H](CC)NC(=O)[C@H]([C@H](C)CC)NC(=O)[C@@H]2CSSC[C@H](NC(=O)CN)C(=O)N[C@@H](CSSC[C@@H](C(=O)O)NC(=O)[C@@H]3CCCN3C1=O)C(=O)N[C@@H](CO)C(=O)N[C@@H](Cc1cnc[nH]1)C(=O)N1CCC[C@H]1C(=O)N[C@@H](CC)C(=O)N2 :: 41.2

Now for a further compound.
Req: I'd like to know its inhibition. The compound in question is CCCC[C@@H]1NC(=O)[C@H](Cc2c[nH]c3ccccc23)NC(=O)[C@H](Cc2ccccc2)NC(=O)[C@@H]2CSSC[C@H](NC(=O)CN)C(=O)N[C@@H](CSSC[C@@H](C(=O)O)NC(=O)[C@H](Cc3ccc(O)cc3)NC1=O)C(=O)N[C@@H](CO)C(=O)N[C@@H](CCCC)C(=O)N1CCC[C@H]1C(=O)N[C@@H](CC)C(=O)N2 (H-GCCS[Nle]P[Abu]CFW[Nle]YC-OH; disulfide 2-8, 3-13)
Resp: 76
